target: UniProt P51449
Assay metric: IC50

Which IC50 value is on record for CCS(=O)(=O)c1ccc(CC(=O)Nc2cc(C)c3c(n2)CCC(C)(c2cccc(OC)n2)C3=O)cc1 (centres unmarked) [Compound 19] ?
150 to 300 nM

Which IC50 value is on record for CCS(=O)(=O)c1ccc(CC(=O)Nc2ccc3c(n2)CCC(C)(n2nc(C)cc2C)C3=O)cc1 (centres unmarked) [Compound 46] ?
> 300 nM

Which IC50 value is on record for CCS(=O)(=O)c1ccc(CC(=O)Nc2cc(C)c3c(n2)CCC(C)(c2nccc(OC)n2)C3=O)cc1 (centres unmarked) [Compound 21] ?
150 to 300 nM

Which IC50 value is on record for CCS(=O)(=O)c1ccc(CC(=O)Nc2cc(C)c3c(n2)CCC(C)(c2ncc(OC)cn2)C3=O)cc1 (centres unmarked) [Compound 61] ?
< 150 nM

Which IC50 value is on record for CCS(=O)(=O)c1ccc(CC(=O)Nc2ccc3c(n2)CCC(C)(c2cc(C)nc(C)n2)C3=O)cc1 (centres unmarked) [Compound 7] ?
< 150 nM

Which IC50 value is on record for CCS(=O)(=O)c1ccc(CC(=O)Nc2cc(C)c3c(n2)CCC(C)(c2cc(C)nc(C)n2)C3=O)cc1 (centres unmarked) [Compound 28] ?
150 to 300 nM

Which IC50 value is on record for CCS(=O)(=O)c1ccc(CC(=O)Nc2cc(C)c3c(n2)CCC(C)(c2ncccc2O)C3=O)cc1 (centres unmarked) [Compound 85] ?
> 300 nM

Which IC50 value is on record for CCS(=O)(=O)c1ccc(CC(=O)Nc2ccc3c(n2)CCC(C)(c2nc(C)cn4ccnc24)C3=O)cc1 (centres unmarked) [Compound 16] ?
150 to 300 nM

---

pIC50: −log10 of the molar value.
Assay metric: pIC50

State its pIC50 on RORγ LBD (Homo sapiens (Human), UniProt P51449): CCS(=O)(=O)c1ccc(CC(=O)Nc2cc(C)c3c(n2)CCC(C)(c2cc(C)nc(C)n2)C3=O)cc1 (single isomer, unassigned) [compound 107]
Sequence (P51449 268-518): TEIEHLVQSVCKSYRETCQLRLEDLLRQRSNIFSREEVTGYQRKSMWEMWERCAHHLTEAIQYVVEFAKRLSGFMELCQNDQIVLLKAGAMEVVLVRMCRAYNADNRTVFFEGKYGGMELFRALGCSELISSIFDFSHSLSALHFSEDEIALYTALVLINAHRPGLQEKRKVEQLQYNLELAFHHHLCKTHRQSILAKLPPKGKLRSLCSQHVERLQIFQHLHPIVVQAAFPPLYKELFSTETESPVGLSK
> 6.82

State its pIC50 on RORγ LBD (Homo sapiens (Human), UniProt P51449): CCS(=O)(=O)c1ccc(CC(=O)Nc2cc(C)c3c(n2)CCC(C)(c2ccc4c(c2)ncn4C)C3=O)cc1 (stereo not shown) [Compound 43]
> 6.82

State its pIC50 on RORγ LBD (Homo sapiens (Human), UniProt P51449): CCS(=O)(=O)c1ccc(CC(=O)Nc2cc(C)c3c(n2)CCC(C)(c2nccn4ccnc24)C3=O)cc1 (stereo not shown) [Compound 26]
< 6.52

State its pIC50 on RORγ LBD (Homo sapiens (Human), UniProt P51449): CCS(=O)(=O)c1ccc(CC(=O)Nc2ccc3c(n2)CC(C)(C)C(c2ncccc2O)C3=O)cc1 (stereo not shown) [Compound 87]
6.52 to 6.82

State its pIC50 on RORγ LBD (Homo sapiens (Human), UniProt P51449): CCS(=O)(=O)c1ccc(CC(=O)Nc2cc(C)c3c(n2)CCC(C)(c2ccc(OC)nn2)C3=O)cc1 (stereo not shown) [Compound 31]
> 6.82

State its pIC50 on RORγ LBD (Homo sapiens (Human), UniProt P51449): CCS(=O)(=O)c1ccc(CC(=O)Nc2cc(C)c3c(n2)CCC(C)(c2cccnc2O)C3=O)cc1 (stereo not shown) [Compound 84]
6.52 to 6.82

State its pIC50 on RORγ LBD (Homo sapiens (Human), UniProt P51449): CCS(=O)(=O)c1ccc(CC(=O)Nc2ccc3c(n2)CCC(C)(c2ncc(Cl)n4ccnc24)C3=O)cc1 (stereo not shown) [Compound 92]
> 6.82

---

What inhibition at 1 µM was measured for each of the following?
biological target: RORγ LBD (Homo sapiens (Human), UniProt P51449); assay: ROR gamma radio-ligand binding assay (3H 25-Hydroxycholesterol competitive displacement, dextran charcoal method); conditions: 1 μM compound

Which inhibition at 1 µM value is on record for CCS(=O)(=O)c1ccc(CC(=O)Nc2ccc3c(n2)CCC(C)(c2ncc(Cl)n4ccnc24)C3=O)cc1 (stereo not drawn) ?
96%

Which inhibition at 1 µM value is on record for Cc1cc(NC(=O)Cc2ccc(S(C)(=O)=O)cc2)nc2c1C(=O)C(C)(c1ncccc1O)CC2 (stereo not drawn) ?
53%

Which inhibition at 1 µM value is on record for CCc1ccc(C2(C)CCc3nc(NC(=O)Cc4ccc(S(=O)(=O)CC)cc4)ccc3C2=O)nn1 (stereo not drawn) ?
47%

---

molecular target: ROR gamma ligand binding domain (Homo sapiens (Human)); assay: ROR gamma luciferase reporter assay (GAL4-ROR gamma LBD, HEK293 cells); type: cell-based; conditions: 48 hours treatment, read-out: RORγ luciferase Reporter assay: IC50 (nM) (in range)
Sequence (P51449 269-508): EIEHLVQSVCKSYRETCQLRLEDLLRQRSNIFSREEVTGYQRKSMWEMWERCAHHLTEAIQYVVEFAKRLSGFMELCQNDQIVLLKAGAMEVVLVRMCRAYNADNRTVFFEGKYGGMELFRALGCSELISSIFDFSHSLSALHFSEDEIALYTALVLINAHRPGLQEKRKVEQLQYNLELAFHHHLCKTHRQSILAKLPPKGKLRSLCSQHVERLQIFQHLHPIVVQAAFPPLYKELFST
Assay metric: IC50

Which IC50 value is on record for CCS(=O)(=O)c1ccc(CC(=O)Nc2ccc3c(n2)CCC(C)(c2ncc(OC)cn2)C3=O)cc1 (single isomer, unassigned) [compound 111] ?
> 500 nM

Which IC50 value is on record for CCS(=O)(=O)c1ccc(CC(=O)Nc2ccc3c(n2)CCC(C)(c2cc(OC)nc(C)n2)C3=O)cc1 (stereo not shown) [Compound 65] ?
< 100 nM

Which IC50 value is on record for CCS(=O)(=O)c1ccc(CC(=O)Nc2ccc3c(n2)CCC(C)(c2cc(OC)nc(C)n2)C3=O)cc1 (single isomer, unassigned) [compound 116] ?
> 500 nM

Which IC50 value is on record for CCS(=O)(=O)c1ccc(CC(=O)Nc2cc(C)c3c(n2)CCC(C)(c2cc(OC)ccn2)C3=O)cc1 (stereo not shown) ?
100 to 500 nM

Which IC50 value is on record for CCS(=O)(=O)c1ccc(CC(=O)Nc2ccc3c(n2)CCC(C)(c2nccn4cc(C)nc24)C3=O)cc1 (single isomer, unassigned) [compound 106] ?
> 500 nM

Which IC50 value is on record for CCS(=O)(=O)c1ccc(CC(=O)Nc2cc(C)c3c(n2)CCC(C)(c2ccc4nccn4n2)C3=O)cc1 (stereo not shown) ?
100 to 500 nM

Which IC50 value is on record for CCS(=O)(=O)c1ccc(CC(=O)Nc2ccc3c(n2)CCC(C)(c2ccnc(C(C)C)n2)C3=O)cc1 (stereo not shown) ?
100 to 500 nM

---

What inhibition at 1 µM was measured for each of the following?
target: RORγ LBD (Homo sapiens (Human)); experiment: ROR gamma radio-ligand binding assay (3H 25-Hydroxycholesterol competitive displacement, dextran charcoal method); settings: 1 μM compound

Which inhibition at 1 µM value is on record for CCS(=O)(=O)c1ccc(CC(=O)Nc2cc(C)c3c(n2)CCC(C)(c2ccc(OC)nn2)C3=O)cc1 (single isomer, unassigned) [compound 109] ?
91%

Which inhibition at 1 µM value is on record for CCS(=O)(=O)c1ccc(CC(=O)Nc2cc(C)c3c(n2)CCC(C)(c2ccc4c(c2)OCO4)C3=O)cc1 (stereo not drawn) [Compound 42] ?
94%

Which inhibition at 1 µM value is on record for CCS(=O)(=O)c1ccc(CC(=O)Nc2cc(C)c3c(n2)CCC(C)(c2ccc(OC)nc2)C3=O)cc1 (stereo not drawn) [Compound 17] ?
92%

Which inhibition at 1 µM value is on record for CCS(=O)(=O)c1ccc(CC(=O)Nc2ccc3c(n2)CCC(C)(c2cc(C)nc(C)n2)C3=O)cc1 (stereo not drawn) [Compound 7] ?
91%

Which inhibition at 1 µM value is on record for CCS(=O)(=O)c1ccc(CC(=O)Nc2cc(C)c3c(n2)CCC(C)(c2ccc(OC)nn2)C3=O)cc1 (stereo not drawn) [Compound 31] ?
90%

Which inhibition at 1 µM value is on record for CCS(=O)(=O)c1ccc(CC(=O)Nc2ccc3c(n2)CCC(C)(n2nc(C)cc2C)C3=O)cc1 (stereo not drawn) [Compound 46] ?
56%

Which inhibition at 1 µM value is on record for CCS(=O)(=O)c1ccc(CC(=O)Nc2cc(C)c3c(n2)CCC(C)(c2nccc(OC)n2)C3=O)cc1 (stereo not drawn) [Compound 21] ?
94%

Which inhibition at 1 µM value is on record for CCS(=O)(=O)c1ccc(CC(=O)Nc2cc(C)c3c(n2)CCC(C)(c2ncc(OC)cn2)C3=O)cc1 (stereo not drawn) [Compound 61] ?
90%

Which inhibition at 1 µM value is on record for CCS(=O)(=O)c1ccc(CC(=O)Nc2ccc3c(n2)CCC(C)(c2ccc(C)s2)C3=O)cc1 (stereo not drawn) [Compound 45] ?
66%

Which inhibition at 1 µM value is on record for CCc1cc(C2(C)CCc3nc(NC(=O)Cc4ccc(S(=O)(=O)CC)cc4)ccc3C2=O)nc(CC)n1 (stereo not drawn) [compound 133] ?
96%

Which inhibition at 1 µM value is on record for CCc1nc(C)cc(C2(C)CCc3nc(NC(=O)Cc4ccc(S(=O)(=O)CC)cc4)ccc3C2=O)n1 (stereo not drawn) [compound 132] ?
99%

Which inhibition at 1 µM value is on record for COc1ccc(C2(C)CCc3nc(NC(=O)Cc4ccc(S(C)(=O)=O)cc4)cc(C)c3C2=O)nn1 (stereo not drawn) [Compound 35] ?
80%

Which inhibition at 1 µM value is on record for CCS(=O)(=O)c1ccc(CC(=O)Nc2cc(C)c3c(n2)CCC(C)(c2cc(C)nc(C)n2)C3=O)cc1 (stereo not drawn) [Compound 28] ?
77%

Which inhibition at 1 µM value is on record for CCS(=O)(=O)c1ccc(CC(=O)Nc2nc3c(cc2C)C(=O)C(C)(c2nccn4ccnc24)CC3)cc1 (stereo not drawn) [Compound 11] ?
25%

Which inhibition at 1 µM value is on record for CCS(=O)(=O)c1ccc(CC(=O)Nc2ccc3c(n2)CCC(C)(c2ncc(OC)cn2)C3=O)cc1 (stereo not drawn) [Compound 56] ?
96%
